Tgt: rSmTAChE (Schistosoma mansoni, UniProt A0A3Q0KMM5)
Sequence (A0A3Q0KMM5 27-661 limits assumed): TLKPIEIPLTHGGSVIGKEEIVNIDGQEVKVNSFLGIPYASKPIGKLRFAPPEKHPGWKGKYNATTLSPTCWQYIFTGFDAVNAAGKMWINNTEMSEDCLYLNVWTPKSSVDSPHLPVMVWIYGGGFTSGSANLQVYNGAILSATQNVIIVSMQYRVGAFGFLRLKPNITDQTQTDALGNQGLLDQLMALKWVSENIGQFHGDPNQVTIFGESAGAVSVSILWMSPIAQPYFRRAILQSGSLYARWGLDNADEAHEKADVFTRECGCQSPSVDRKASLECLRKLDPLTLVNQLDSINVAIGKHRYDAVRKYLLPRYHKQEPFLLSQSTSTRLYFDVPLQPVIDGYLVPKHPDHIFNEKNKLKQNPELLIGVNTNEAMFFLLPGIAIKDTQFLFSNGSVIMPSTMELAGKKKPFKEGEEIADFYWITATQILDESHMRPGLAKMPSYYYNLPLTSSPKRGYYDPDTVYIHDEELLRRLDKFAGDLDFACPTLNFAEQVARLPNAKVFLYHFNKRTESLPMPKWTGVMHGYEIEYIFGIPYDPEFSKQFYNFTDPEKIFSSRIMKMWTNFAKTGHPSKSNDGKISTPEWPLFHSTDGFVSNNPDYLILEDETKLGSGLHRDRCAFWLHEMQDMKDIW
Type: biochemical
Property name: Data Mode (curve class), rSmTAChE

                                   compound                                       tgt  readout_value
0  COC(=O)CCSCc1ccc(-c2onc(C)c2NC(=O)OC(C)c2ccccc2Cl)cc1 (stereo not shown) [BRD-A94323479-001-02-8]  rSmTAChE (Schistosoma mansoni, UniProt A0A3Q0KMM5)       inactive
1  O=C(Nc1ccccc1Br)N[C@@H]1CCN(c2ccc(C(F)(F)F)cn2)C1 [BRD-K65991129-001-02-9]  rSmTAChE (Schistosoma mansoni, UniProt A0A3Q0KMM5)       inactive
2  C[C@H](NC(=O)C(C)(C)Oc1ccc(C(F)(F)F)cn1)[C@@H](Cc1ccc(Cl)cc1)c1cccc(C#N)c1 [BRD-K35169477-001-01-9]  rSmTAChE (Schistosoma mansoni, UniProt A0A3Q0KMM5)       inactive

Value source: paper PMC12154458
